- protocol: Pharmacokinetic profile-half life was evaluated in rats upon intravenous administration
- Format: ADME, organism-based
- runConditions: rat, in vivo
Hi! Just check whether half-life is below 2 h. Below gives Y, equal or above gives N.

INPUT: Quick check: half-life of COc1ccc(C(=O)/C(Cc2cc(OC)c(OC)c(OC)c2)=C(\C(=O)[O-])c2ccc3c(c2)OCO3)cc1.[Na+] [PD-156707 SODIUM] under 2 h?
OUTPUT: Y

INPUT: Quick check: half-life of `COc1ccccc1Oc1c(NS(=O)(=O)c2ccc(C)cn2)nc(-c2ccnc(-c3nnn[nH]3)c2)nc1OCCO` under 2 h?
OUTPUT: Y

INPUT: Quick check: half-life of `C/C=C\C(C)(C)C[C@H]1[C@H](C(=O)O)[C@@H](c2cc(OC)c3c(c2)OCO3)CN1CC(=O)N(CCCC)CCCC` under 2 h?
OUTPUT: Y

INPUT: Quick check: half-life of `C/C=C\C(C)(C)C[C@H]1[C@H](C(=O)O)[C@@H](c2ccc3c(c2)OCO3)CN1CC(=O)N(CCCC)CCCC` under 2 h?
OUTPUT: Y

INPUT: Quick check: half-life of `CCCCN(CCCC)C(=O)CN1C[C@H](c2cc(OC)c3c(c2)OCO3)[C@@H](C(=O)O)[C@@H]1CC(C)(C)CCC` under 2 h?
OUTPUT: Y

INPUT: Quick check: half-life of `CCCCN(CCCC)C(=O)CN1C[C@H](c2ccc3c(c2)OCO3)[C@@H](C(=O)O)[C@@H]1CCc1ccccn1` under 2 h?
OUTPUT: N

INPUT: Quick check: half-life of `CCCOc1ccc2c(c1)[C@@H](c1ccc(OC)cc1OCCO)[C@H](C(=O)O)[C@H]2c1ccc2c(c1)OCO2` under 2 h?
OUTPUT: N

INPUT: Quick check: half-life of `CCCCN(CCCC)C(=O)CN1C[C@H](c2ccc3c(c2)OCO3)[C@@H](C(=O)O)[C@@H]1CC(C)(C)CCC` under 2 h?
OUTPUT: N

INPUT: Quick check: half-life of `CCCCN(CCCC)C(=O)CN1C[C@H](c2ccc3c(c2)OCO3)[C@@H](C(=O)O)[C@@H]1CCN1CCCC1=O` under 2 h?
OUTPUT: Y

INPUT: Quick check: half-life of `Cc1cc2c(cc1CC(=O)c1ccsc1S(=O)(=O)Nc1onc(C)c1Cl)OCO2` under 2 h?
OUTPUT: N

###

- protocol: Bioavailability in rat
- Format: ADME, organism-based
- runConditions: in vivo
Values of bioavailability greater than or equal to 30% map to Condition met; values below map to Condition not met.

INPUT: I'd appreciate it if you could say whether `CCCOc1ccc2c(c1)[C@@H](c1ccc(OC)cc1OCCO)[C@H](C(=O)O)[C@H]2c1ccc2c(c1)OCO2` has bioavailability at least equal to 30%.
OUTPUT: Condition met

INPUT: I'd appreciate it if you could say whether `CCCCN(CCCC)C(=O)CN1C[C@H](c2ccc3c(c2)OCO3)[C@@H](C(=O)O)[C@@H]1CCN1CCCC1=O` has bioavailability at least equal to 30%.
OUTPUT: Condition not met

INPUT: I'd appreciate it if you could say whether `CCCCN(CCCC)C(=O)CN1C[C@H](c2cc(OC)c3c(c2)OCO3)[C@@H](C(=O)O)[C@@H]1CC(C)(C)CCC` has bioavailability at least equal to 30%.
OUTPUT: Condition met

INPUT: I'd appreciate it if you could say whether `CCCCN(CCCC)C(=O)CN1C[C@H](c2ccc3c(c2)OCO3)[C@@H](C(=O)O)[C@@H]1CCc1ccccn1` has bioavailability at least equal to 30%.
OUTPUT: Condition not met

INPUT: I'd appreciate it if you could say whether `Cc1cc2c(cc1CC(=O)c1ccsc1S(=O)(=O)Nc1onc(C)c1Cl)OCO2` has bioavailability at least equal to 30%.
OUTPUT: Condition met

INPUT: I'd appreciate it if you could say whether `C/C=C\C(C)(C)C[C@H]1[C@H](C(=O)O)[C@@H](c2ccc3c(c2)OCO3)CN1CC(=O)N(CCCC)CCCC` has bioavailability at least equal to 30%.
OUTPUT: Condition met

INPUT: I'd appreciate it if you could say whether COc1ccc(C(=O)/C(Cc2cc(OC)c(OC)c(OC)c2)=C(\C(=O)[O-])c2ccc3c(c2)OCO3)cc1.[Na+] [PD-156707 SODIUM] has bioavailability at least equal to 30%.
OUTPUT: Condition met

INPUT: I'd appreciate it if you could say whether `C/C=C\C(C)(C)C[C@H]1[C@H](C(=O)O)[C@@H](c2cc(OC)c3c(c2)OCO3)CN1CC(=O)N(CCCC)CCCC` has bioavailability at least equal to 30%.
OUTPUT: Condition not met

INPUT: I'd appreciate it if you could say whether `CCCCN(CCCC)C(=O)CN1C[C@H](c2ccc3c(c2)OCO3)[C@@H](C(=O)O)[C@@H]1CC(C)(C)CCC` has bioavailability at least equal to 30%.
OUTPUT: Condition met
